- SYSTEM UNDER TEST: PolQ ATPase enzyme (1-894) (Homo sapiens (Human))
- Sequence (O75417 1-894): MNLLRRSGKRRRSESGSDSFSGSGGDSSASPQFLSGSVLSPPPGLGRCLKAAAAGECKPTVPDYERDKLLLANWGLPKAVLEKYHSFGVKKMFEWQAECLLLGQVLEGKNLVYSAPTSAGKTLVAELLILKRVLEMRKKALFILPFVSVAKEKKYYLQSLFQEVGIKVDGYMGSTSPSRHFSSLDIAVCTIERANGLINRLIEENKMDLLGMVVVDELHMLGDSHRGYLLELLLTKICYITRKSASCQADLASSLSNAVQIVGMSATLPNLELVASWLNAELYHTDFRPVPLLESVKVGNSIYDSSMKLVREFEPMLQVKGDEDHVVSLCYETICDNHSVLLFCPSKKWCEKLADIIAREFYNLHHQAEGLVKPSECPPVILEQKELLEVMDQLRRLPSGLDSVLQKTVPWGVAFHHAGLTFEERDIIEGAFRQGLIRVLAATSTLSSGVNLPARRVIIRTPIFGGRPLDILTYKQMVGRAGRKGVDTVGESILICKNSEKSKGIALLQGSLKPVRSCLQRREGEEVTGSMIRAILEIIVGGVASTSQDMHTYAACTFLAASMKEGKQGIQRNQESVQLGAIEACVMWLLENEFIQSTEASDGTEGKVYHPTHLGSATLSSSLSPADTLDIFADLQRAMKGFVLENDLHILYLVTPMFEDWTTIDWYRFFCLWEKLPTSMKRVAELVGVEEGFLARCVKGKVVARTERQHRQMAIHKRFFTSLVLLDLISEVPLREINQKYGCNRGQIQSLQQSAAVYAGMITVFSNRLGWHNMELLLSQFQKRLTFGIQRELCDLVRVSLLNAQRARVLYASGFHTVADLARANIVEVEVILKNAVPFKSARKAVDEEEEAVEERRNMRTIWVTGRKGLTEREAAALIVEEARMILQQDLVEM
- ASSAY PROTOCOL: Polθ ATPase enzymatic assay (0.5 nM enzyme concentration), ADP-Glo
- Format: biochemical
- SETUP CONDITIONS: 0.5 nM PolQ ATPase enzyme (1-894); average IC50
EXPERIMENTAL READOUT: IC50

**Q:** Quick check: IC50 of COc1cnc(C(F)F)cc1-c1cc(-n2ccc(CO)cc2=O)ncc1C(=O)Nc1nnc(C#CC2CC2)s1 [Compound 490] ?
**A:** < 0.25 nM

**Q:** Repeat for the following molecule: COc1cnc(C(F)F)cc1-c1cc(C#CCN(C)C)ncc1C(=O)Nc1nnc(C#CC2CC2)s1 [Compound 628]
**A:** < 0.25 nM

**Q:** Repeat for the following molecule: COc1cnc(C(F)F)cc1-c1cc(C2CC(C)CCC2=O)ncc1C(=O)Nc1nnc(C#CC2CC2)s1 (racemic) [Compound 389]
**A:** < 0.25 nM
